Origin of values: patent US11753395B2

Attribute: EC50
Molecular target: Ba/F3-TPR-MET cells (Homo sapiens)
Construct: fused on or other part: P12270 (Nucleoprotein TPR)
Experiment: CellTiter-Glo Cell Viability Assay, Ba/F3-TPR-MET
Details: 72 hours
Protocol: Ba/F3-TPR-MET and Ba/F3-TPR-MET-D1228N cells were seeded at 3000 cells per well in a 96 well plate in 90 μL growth media and allowed to incubate overnight at 37° C. with 5% CO2. […] The CellTiter-Glo® 2.0 Assay determines the number of viable cells in culture by quantifying ATP, which indicates the presence of metabolically active cells. Luminescence readout is directly proportional to the number of viable cells in culture. […]
assay endpoint: EC50

[[record]]
compound_structure = "C#CCOc1ccncc1C(=O)Nc1cc(F)c(Oc2ccnc3cc(OCCNC)c(OC)cc23)c(F)c1"
measured = "≤ 100 nM"

[[record]]
compound_structure = "COCCOc1cc2nccc(Oc3c(F)cc(NC(=O)c4cnccc4OC)cc3F)c2nc1OC"
measured = "≤ 100 nM"

[[record]]
compound_structure = "COc1cc2nccc(Oc3c(F)cc(NC(=O)c4cnccc4OC)cc3F)c2cc1OCC(C)(C)O"
measured = "≤ 100 nM"

[[record]]
compound_structure = "CNCCOc1ccc2c(Oc3c(F)cc(NC(=O)c4cnccc4OC)cc3F)ccnc2c1"
measured = "≤ 100 nM"

[[record]]
compound_structure = "COc1cc2nccc(Oc3c(F)cc(NC(=O)c4cnccc4OC4CC4)cc3F)c2cc1OC"
measured = "≤ 100 nM"

[[record]]
compound_structure = "CC(C)(CO)Oc1ccc2c(Oc3c(F)cc(NC(=O)c4cnccc4OC4CC4)cc3F)ccnc2c1"
measured = "1000 to 10000 nM"

[[record]]
compound_structure = "COc1cc2nccc(Oc3c(F)cc(NC(=O)c4ccncc4OC)cc3F)c2cc1O[C@@H](C)CO"
measured = "≤ 100 nM"

[[record]]
compound_structure = "COc1cc2c(Oc3c(F)cc(NC(=O)c4cnccc4OC4CC4)cc3F)ccnc2cc1OC[C@H](C)O"
measured = "≤ 100 nM"

[[record]]
compound_structure = "COC[C@H](C)Oc1cc2c(Oc3c(F)cc(NC(=O)c4cnccc4OC)cc3F)ccnc2cc1OC"
measured = "≤ 100 nM"

[[record]]
compound_structure = "CNCCOc1cc2nccc(Oc3c(F)cc(NC(=O)c4cnccc4OCCCF)cc3F)c2cc1OC"
measured = "≤ 100 nM"

[[record]]
compound_structure = "CCOc1ccncc1C(=O)Nc1cc(F)c(Oc2ccnc3cc(OCCCN4CCOCC4)c(OC)cc23)c(F)c1"
measured = "≤ 100 nM"

[[record]]
compound_structure = "COc1ccncc1C(=O)Nc1cc(F)c(Oc2ccnc3cc(OC)c(OC4(CO)CC4)nc23)c(F)c1"
measured = "≤ 100 nM"

[[record]]
compound_structure = "CNCCCOc1cc2nccc(Oc3ccc(NC(=O)c4cnccc4OC)c(F)c3F)c2cc1OC"
measured = "100 to 1000 nM"

[[record]]
compound_structure = "COc1cc2nccc(Oc3c(F)cc(NC(=O)c4cnccc4OC)cc3F)c2cc1OC"
measured = "100 to 1000 nM"

[[record]]
compound_structure = "COc1cc(OC2CC2)c(C(=O)Nc2cc(F)c(Oc3ccnc4cc(OCCO)c(OC)cc34)c(F)c2)cn1"
measured = "≤ 100 nM"

[[record]]
compound_structure = "CNCCOc1cc2nccc(Oc3c(F)cc(NC(=O)c4cc(F)c(F)cc4OC)cc3F)c2cc1OC"
measured = "1000 to 10000 nM"

[[record]]
compound_structure = "COc1cc2c(Oc3c(F)cc(NC(=O)c4c(OCC(F)F)ccnc4F)cc3F)ccnc2cc1OCCO"
measured = "≤ 100 nM"

[[record]]
compound_structure = "COc1cc2nccc(Oc3c(F)cc(NC(=O)c4cnccc4OC)cc3F)c2cn1"
measured = "100 to 1000 nM"

[[record]]
compound_structure = "COc1cc2c(Oc3c(F)cc(NC(=O)c4nnccc4OC4CC4)cc3F)ccnc2cc1OCCO"
measured = "≤ 100 nM"

[[record]]
compound_structure = "CNCCOc1cc2nccc(Oc3c(F)cc(NC(=O)c4cnccc4OC(F)F)cc3F)c2cc1OC"
measured = "100 to 1000 nM"

[[record]]
compound_structure = "COc1ccc2c(Oc3c(F)cc(NC(=O)c4cnccc4OC)cc3F)ccnc2c1"
measured = "100 to 1000 nM"

[[record]]
compound_structure = "CCOc1ccncc1C(=O)Nc1cc(F)c(Oc2ccnc3cc(OCCNC)c(OC)cc23)c(F)c1"
measured = "≤ 100 nM"

[[record]]
compound_structure = "COc1cc2nccc(Oc3c(F)cc(NC(=O)c4cnccc4OC)c(F)c3F)c2cc1O[C@@H](C)CO"
measured = "≤ 100 nM"

[[record]]
compound_structure = "CNCCCOc1cc2nccc(Nc3c(F)cc(NC(=O)c4cnccc4OC)cc3F)c2cc1OC"
measured = "> 10000 nM"

[[record]]
compound_structure = "COc1cc2c(Oc3c(F)cc(NC(=O)c4cnccc4OC4CC4)cc3F)ccnc2cc1OCCO"
measured = "≤ 100 nM"

[[record]]
compound_structure = "CNCCOc1cc2nccc(Oc3c(F)cc(NC(=O)c4cnc(NCCOC)cc4OC)cc3F)c2cc1OC"
measured = "≤ 100 nM"

[[record]]
compound_structure = "CCOc1ccncc1C(=O)Nc1ccc(Oc2ccnc3cc(OCCNC)c(OC)cc23)c(F)c1F"
measured = "100 to 1000 nM"

[[record]]
compound_structure = "CNCCOc1cc2nccc(Oc3c(F)cc(NC(=O)c4cnccc4OC4CCC4)cc3F)c2cc1OC"
measured = "100 to 1000 nM"

[[record]]
compound_structure = "CNCCOc1ccc2c(Oc3c(F)cc(NC(=O)c4c(OC)ccnc4F)cc3F)ccnc2c1"
measured = "100 to 1000 nM"

[[record]]
compound_structure = "COCCOc1cc2nccc(Oc3c(F)cc(NC(=O)c4cnccc4OC4CC4)cc3F)c2nc1OC"
measured = "≤ 100 nM"

[[record]]
compound_structure = "CNCCOc1ccc2c(Oc3c(F)cc(NC(=O)c4cccnc4OC4CC4)cc3F)ccnc2c1"
measured = "100 to 1000 nM"

[[record]]
compound_structure = "COc1ccncc1C(=O)Nc1cc(F)c(Oc2ccnc3cc(OC)c(O[C@@H](C)CO)nc23)c(F)c1"
measured = "≤ 100 nM"


====

Attribute: pEC50
biological target: Ba/F3-TPR-MET cells (Homo sapiens, UniProt P08581); construct: fused on or other part: P12270 (Nucleoprotein TPR); test: CellTiter-Glo Cell Viability Assay, Ba/F3-TPR-MET; conditions: 72 hours
Sequence (P08581 whole entry, change not shown, the tested form may be a part): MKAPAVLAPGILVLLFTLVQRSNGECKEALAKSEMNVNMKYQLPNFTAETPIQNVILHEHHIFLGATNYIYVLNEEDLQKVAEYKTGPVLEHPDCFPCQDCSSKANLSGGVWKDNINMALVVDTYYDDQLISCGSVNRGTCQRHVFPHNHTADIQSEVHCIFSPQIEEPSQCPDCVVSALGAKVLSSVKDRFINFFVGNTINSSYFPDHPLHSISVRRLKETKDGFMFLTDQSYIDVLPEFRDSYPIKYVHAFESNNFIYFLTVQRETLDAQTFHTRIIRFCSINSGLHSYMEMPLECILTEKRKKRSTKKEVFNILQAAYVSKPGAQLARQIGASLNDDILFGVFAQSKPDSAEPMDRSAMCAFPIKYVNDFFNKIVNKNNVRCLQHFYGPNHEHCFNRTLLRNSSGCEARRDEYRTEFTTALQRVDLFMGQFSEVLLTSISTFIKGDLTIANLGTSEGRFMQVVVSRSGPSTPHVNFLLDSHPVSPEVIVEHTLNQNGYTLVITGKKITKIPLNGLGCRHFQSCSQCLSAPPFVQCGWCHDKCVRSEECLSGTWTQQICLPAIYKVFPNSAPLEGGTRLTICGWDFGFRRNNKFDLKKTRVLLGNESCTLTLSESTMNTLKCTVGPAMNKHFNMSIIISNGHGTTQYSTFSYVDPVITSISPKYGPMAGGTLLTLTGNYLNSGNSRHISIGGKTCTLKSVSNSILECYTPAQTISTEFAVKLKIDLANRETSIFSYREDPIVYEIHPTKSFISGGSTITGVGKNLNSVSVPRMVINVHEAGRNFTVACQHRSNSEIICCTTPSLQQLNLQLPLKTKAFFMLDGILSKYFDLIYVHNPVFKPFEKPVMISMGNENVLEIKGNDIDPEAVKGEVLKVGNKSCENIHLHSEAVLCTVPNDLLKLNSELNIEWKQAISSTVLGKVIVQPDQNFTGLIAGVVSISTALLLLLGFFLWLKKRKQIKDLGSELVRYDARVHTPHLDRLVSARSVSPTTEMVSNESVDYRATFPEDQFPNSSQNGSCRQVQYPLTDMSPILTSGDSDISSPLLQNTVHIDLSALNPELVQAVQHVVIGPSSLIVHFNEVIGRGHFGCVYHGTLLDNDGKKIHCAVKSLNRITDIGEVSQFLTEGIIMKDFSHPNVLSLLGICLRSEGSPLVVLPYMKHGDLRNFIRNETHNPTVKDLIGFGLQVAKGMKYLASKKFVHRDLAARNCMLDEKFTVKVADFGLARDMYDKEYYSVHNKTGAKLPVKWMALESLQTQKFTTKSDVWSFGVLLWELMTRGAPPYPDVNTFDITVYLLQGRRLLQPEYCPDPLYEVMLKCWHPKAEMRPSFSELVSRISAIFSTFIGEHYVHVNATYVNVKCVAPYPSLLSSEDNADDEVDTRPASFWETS
pEC50: −log10 of the molar value.
assay endpoint: pEC50

[[record]]
compound_structure = "COc1cc2c(Oc3c(F)cc(NC(=O)c4cnc(C)cc4OC4CC4)cc3F)ccnc2cc1OCCO"
assay_endpoint = "pEC50"
measured = "≥ 7.00"

[[record]]
compound_structure = "CNCCOc1cc2nccc(Oc3c(F)cc(NC(=O)c4cnccc4OC[C@@H](C)F)cc3F)c2cc1OC"
assay_endpoint = "pEC50"
measured = "≥ 7.00"

[[record]]
compound_structure = "CNCCCOc1cc2nccc(Oc3c(F)cc(NC(=O)c4cnccc4OC4CC4)cc3F)c2cc1OC"
assay_endpoint = "pEC50"
measured = "6.00 to 7.00"

[[record]]
compound_structure = "COc1cc2c(Oc3cc(F)c(NC(=O)c4cnccc4OC)cc3F)ccnc2cc1OCCCN1CCOCC1"
assay_endpoint = "pEC50"
measured = "6.00 to 7.00"

[[record]]
compound_structure = "CNCCOc1ccc2c(Oc3c(F)cc(NC(=O)c4ccncc4OC4CC4)cc3F)ccnc2c1"
assay_endpoint = "pEC50"
measured = "≥ 7.00"

[[record]]
compound_structure = "COc1cc2nccc(Oc3c(F)cc(NC(=O)c4cnccc4OC)cc3F)c2cc1O[C@@H](C)CO"
assay_endpoint = "pEC50"
measured = "≥ 7.00"

[[record]]
compound_structure = "COc1cc2nccc(Oc3c(F)cc(NC(=O)c4cnccc4OC)cc3F)c2cc1OC[C@@H](C)O"
assay_endpoint = "pEC50"
measured = "≥ 7.00"

[[record]]
compound_structure = "CNCCOc1cc2nccc(Oc3cc(F)c(NC(=O)c4cnccc4OC)cc3F)c2cc1OC"
assay_endpoint = "pEC50"
measured = "6.00 to 7.00"

[[record]]
compound_structure = "COCCOc1cnc2c(Oc3c(F)cc(NC(=O)c4cnccc4OC)cc3F)ccnc2c1"
assay_endpoint = "pEC50"
measured = "≥ 7.00"

[[record]]
compound_structure = "CCOc1ccncc1C(=O)Nc1ccc(Oc2ccnc3cc(OCCCNC)c(OC)cc23)c(F)c1F"
assay_endpoint = "pEC50"
measured = "≥ 7.00"

[[record]]
compound_structure = "CNCCOc1cc2nccc(Oc3c(F)cc(NC(=O)c4cnccc4OC[C@@H](C)O)cc3F)c2cc1OC"
assay_endpoint = "pEC50"
measured = "6.00 to 7.00"

[[record]]
compound_structure = "CNCCOc1ccc2c(Oc3c(F)cc(NC(=O)c4cnc(C)cc4OC4CC4)cc3F)ccnc2c1"
assay_endpoint = "pEC50"
measured = "≥ 7.00"

[[record]]
compound_structure = "CNCCOc1ccc2c(Oc3c(F)cc(NC(=O)c4cnccc4OC4CC4)c(F)c3F)ccnc2c1"
assay_endpoint = "pEC50"
measured = "≥ 7.00"

[[record]]
compound_structure = "COCCOc1ccc2c(Oc3c(F)cc(NC(=O)c4cnccc4OC4CC4)cc3F)ccnc2c1"
assay_endpoint = "pEC50"
measured = "6.00 to 7.00"

[[record]]
compound_structure = "COc1cc2c(Oc3c(F)cc(NC(=O)c4cnccc4OC4CC4)cc3F)ccnc2cc1OC1CNC1"
assay_endpoint = "pEC50"
measured = "6.00 to 7.00"

[[record]]
compound_structure = "CNCCOc1cc2nccc(Oc3c(F)cc(NC(=O)c4cnc(C)nc4OC4CC4)cc3F)c2cc1OC"
assay_endpoint = "pEC50"
measured = "6.00 to 7.00"

[[record]]
compound_structure = "COc1cc2nccc(Oc3c(F)cc(NC(=O)c4cnccc4OC)cc3F)c2cc1O[C@H](C)CO"
assay_endpoint = "pEC50"
measured = "≥ 7.00"

[[record]]
compound_structure = "COc1cc2c(Oc3c(F)cc(NC(=O)c4cnccc4OC)cc3F)ccnc2cc1OC(F)F"
assay_endpoint = "pEC50"
measured = "< 5.00"

[[record]]
compound_structure = "CNCCOc1cc2nccc(Oc3c(F)cc(NC(=O)c4cnc(Cl)cc4OC4CC4)cc3F)c2cc1OC"
assay_endpoint = "pEC50"
measured = "6.00 to 7.00"

[[record]]
compound_structure = "CNCCOc1cc2nccc(Oc3c(F)cc(NC(=O)c4cnccc4O[C@@H]4CCOC4)cc3F)c2cc1OC"
assay_endpoint = "pEC50"
measured = "6.00 to 7.00"

[[record]]
compound_structure = "CC(C)(O)COc1ccc2c(Oc3c(F)cc(NC(=O)c4cnccc4OC4CC4)cc3F)ccnc2c1"
assay_endpoint = "pEC50"
measured = "5.00 to 6.00"

[[record]]
compound_structure = "COc1cc2nccc(Oc3c(F)cc(NC(=O)c4cnccc4OCC(F)F)cc3F)c2cc1OCCO"
assay_endpoint = "pEC50"
measured = "≥ 7.00"

[[record]]
compound_structure = "CCCOc1ccncc1C(=O)Nc1cc(F)c(Oc2ccnc3cc(OCCNC)c(OC)cc23)c(F)c1"
assay_endpoint = "pEC50"
measured = "≥ 7.00"

[[record]]
compound_structure = "CNCCOc1cc2nccc(Oc3c(F)cc(NC(=O)c4cnccc4OCCO)cc3F)c2cc1OC"
assay_endpoint = "pEC50"
measured = "6.00 to 7.00"

[[record]]
compound_structure = "CCCOc1ccncc1C(=O)Nc1cc(F)c(Oc2ccnc3cc(OCCNC)c(OC)cc23)cc1F"
assay_endpoint = "pEC50"
measured = "6.00 to 7.00"

[[record]]
compound_structure = "COc1cc2c(Oc3c(F)cc(NC(=O)c4cnccc4OC4CC4)cc3F)ccnc2cc1OC[C@@H](C)O"
assay_endpoint = "pEC50"
measured = "≥ 7.00"

[[record]]
compound_structure = "COc1ccncc1C(=O)Nc1cc(F)c(Oc2ccnc3cc(OCCO)ccc23)c(F)c1"
assay_endpoint = "pEC50"
measured = "6.00 to 7.00"

[[record]]
compound_structure = "COc1cc2c(Oc3c(F)cc(NC(=O)c4ccccc4F)cc3F)ccnc2cc1OCCO"
assay_endpoint = "pEC50"
measured = "≥ 7.00"

[[record]]
compound_structure = "CNCCOc1cc2nccc(Oc3c(F)cc(NC(=O)c4cnc(F)cc4OC4CC4)cc3F)c2cc1OC"
assay_endpoint = "pEC50"
measured = "≥ 7.00"

[[record]]
compound_structure = "CNCCOc1cc2nccc(Oc3c(F)cc(NC(=O)c4cnccc4OCCOC)cc3F)c2cc1OC"
assay_endpoint = "pEC50"
measured = "6.00 to 7.00"

[[record]]
compound_structure = "COc1cc2c(Oc3cc(F)c(NC(=O)c4cnc(N)cc4OC)cc3F)ccnc2cc1OCCCN1CCOCC1"
assay_endpoint = "pEC50"
measured = "6.00 to 7.00"

